Tested on: BT-549
Test: NCI tumour cell line growth inhibition, 48 h
Active and inactive are the calls of the source. No stated cut-off is given here; in the data, active = GI50 up to about 1.1 µM and inactive = higher.
Answer with one of the outcomes given here: active, inactive

CC(C)(C)c1cc(C2COC(=O)COCCOCC(=O)OCCOCCO2)cc(C(C)(C)C)c1O (configuration not stated) | inactive
Fc1ccc2nc3n(c2c1)C(c1c(Cl)cccc1Cl)SC3 (configuration not stated) | inactive
COc1cc(S(=O)(=O)Nc2ccc(-c3csc(N4C(=O)C(C)SC4c4ccccc4)n3)cc2)ccc1Cl (configuration not stated) | inactive
BrC1=CN2C[n+]3cc(Br)c4ccccc4c3N=C2c2ccccc21 | inactive
O=C(c1ccc(Cl)cc1)C1OC12C(=O)Nc1ccccc12 (configuration not stated) | inactive

INPUT: // return assay outcome for C/C(=N/NC(=S)Nc1cccc(Cl)c1)c1cccc(/C(C)=N\NC(=S)Nc2cccc(Cl)c2)n1
OUTPUT: active

INPUT: // return assay outcome for ClCCN1CCC2(CC1)SSC1(CCN(CCCl)CC1)S2
OUTPUT: inactive

INPUT: // return assay outcome for CC(=O)OC/C=C/Cn1nc(Br)c(=O)[nH]c1=O
OUTPUT: inactive

INPUT: // return assay outcome for COC(=O)N1CC2C3C4CC(C(c5ccccc5)=C4c4ccccc4)C3C21 (configuration not stated)
OUTPUT: inactive

INPUT: // return assay outcome for CC(C)C(=O)[C@@]1(C)SC[C@H]2CCN=C21
OUTPUT: inactive

INPUT: // return assay outcome for O=C([C@H](O)[C@@H](O)c1ccc(Br)cc1)C12CC3CC(CC(C3)C1)C2
OUTPUT: inactive

INPUT: // return assay outcome for COC(=O)C(C)(NC(=O)C(CC(=O)OC(C)(C)C)NC(=O)OC(C)(C)C)c1ccccc1 (configuration not stated)
OUTPUT: inactive

INPUT: // return assay outcome for Nc1nc2ncc(SCc3ccc(C(=O)NC(CCC(=O)O)C(=O)O)cc3)cc2c(=O)[nH]1 (configuration not stated)
OUTPUT: inactive

INPUT: // return assay outcome for O=c1oc2ccccc2n1CCN1CCCCC1
OUTPUT: inactive
